Each entry below carries its reported MFI.
Molecular target: T1, mouse GPRC5D (mouse, UniProt Q9JIL6 1-344)
T1 construct: whole, on cells; HEK293T-mGPRC5D cells; also called mGPRC5D; murine GPRC5D
T1 sequence (looked up): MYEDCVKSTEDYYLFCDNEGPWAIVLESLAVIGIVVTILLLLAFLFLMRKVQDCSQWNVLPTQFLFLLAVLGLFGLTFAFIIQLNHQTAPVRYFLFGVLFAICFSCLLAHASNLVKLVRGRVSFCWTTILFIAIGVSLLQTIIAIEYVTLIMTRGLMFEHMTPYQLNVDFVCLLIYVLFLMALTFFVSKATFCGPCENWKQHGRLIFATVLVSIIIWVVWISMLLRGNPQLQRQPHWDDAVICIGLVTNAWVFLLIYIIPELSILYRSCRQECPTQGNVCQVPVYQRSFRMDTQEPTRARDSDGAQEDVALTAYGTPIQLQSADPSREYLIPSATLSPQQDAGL
Assay: FACS, HEK293T-mGPRC5D cells
// print number alone

90G6H3 (antibody, V domains shown, Mouse monoclonal antibody from hybridoma subclone) VH: QAYLQQSGAELVRSGASVKMSCKASGYTFTSYIMHWVKQTPGQGLEWIGYIYPGNGGTNYNQKFKDKATLSADTSSSTAYMQINSLTSEDSAVYFCARWGLRQGFAYWGQGTLVSVSA VL: DIVMTQSQKFMSTSVGDRVSVTCKASQNVGGNVAWYQQKPGQSPKALIYSTSYRNSGVPDRFTGSGSGTDFTLTISNVQSEDLAEYFCQQYNSYPFTFGSGTKLEIR | 2230
98A3A8 (antibody, V domains shown, Mouse monoclonal antibody from hybridoma subclone) VH: EVQLQQSGPELVKPGASVKMSCKASGYTFTYYVTHWVRQKPGQGLEWIGYINPYNDGTMFNEKFKGKATLTSDKSSSTAYMEFSSLTSEDSAVFYCARGGVRRYFDVWGAGTTVTVSS VL: DIQMTQSPSSLSASLGERVSLTCRASQDIGSNLNWLQQKPDGTIKRLIYATSSLDSGVPKRFSGSRSGSDYSLTINSLESEDFVDYYCLQYASFPYTFGGGTKLEIK | 566

Pending binder:
*Q* Give MFI for the following binder: 110B4H5 (antibody, V domains shown, Mouse monoclonal antibody from hybridoma subclone) VH: EVQLQQSGPELVKPGASVKMSCKASGYTFTFYIMHWVKQKPGQGPEWIGYINPYNDGTKYNAKFKGKATLSSDRSSSTAYMELSSLTSEDSAVYYCARGGVRRYFDVWGAGTPVTVSS VL: DIQMTQSPSSLSASLGERVSLTCRSSQDIGSNLNWLQQEPDGTIKRLIYATFSLDSGVPKRFSGSRSGSHYSLTISSLESEDFVVYYCLQYGSFPYTFGGGTKLEIK
*A* 772
